B1: Formin-binding protein 4, residues 200 to 261; numbered along this chain, Q8N3X1 (parent)
chain: SGWQYDTQCSLAGVGIEMGDWQEVWDENTGCYYYWNTQTNEVTWELPQYLATQVQGLQHYQP

# Variants of: B1
# MEASUREMENT_PROTOCOL: abundance fitness (aPCA) (normalised: wild type 0, dead -1); higher = more abundant; growth selection in yeast, the domain comes from the species named
# PROTOCOL_CONDITIONS: Homo sapiens
Overview of recorded abundance fitness for various variants
// no unit string in output, number only

Bench note: what abundance fitness did `T37R` show?
-0.111

Please give the result for `G19F` too.
-0.794

Please give the result for `S10L` too.
-0.651

Further cases:
Bench note: what abundance fitness did `V14A` show?
-0.06

Please give the result for `D20W` too.
-0.143

Please give the result for `G30P` too.
-0.219

Please give the result for `Q8W` too.
-0.421

Please give the result for `Y60Q` too.
0.123

Please give the result for `Q38I` too.
-0.086

Please give the result for `H59S` too.
-0.029

Please give the result for `Y33A` too.
-0.691
